Where these numbers come from: patent US11453660B2

target: AR-Receptor (Homo sapiens, UniProt P10275); assay: Functional Assay AR-Receptor (MDA-MB-453 cells, luciferase); type: cell-based; settings: antagonist effect in the presence of DHT 1 nM, 24 h, luciferase luminescence, read-out: AR antag KB
Sequence (P10275 whole entry Q868H, form open): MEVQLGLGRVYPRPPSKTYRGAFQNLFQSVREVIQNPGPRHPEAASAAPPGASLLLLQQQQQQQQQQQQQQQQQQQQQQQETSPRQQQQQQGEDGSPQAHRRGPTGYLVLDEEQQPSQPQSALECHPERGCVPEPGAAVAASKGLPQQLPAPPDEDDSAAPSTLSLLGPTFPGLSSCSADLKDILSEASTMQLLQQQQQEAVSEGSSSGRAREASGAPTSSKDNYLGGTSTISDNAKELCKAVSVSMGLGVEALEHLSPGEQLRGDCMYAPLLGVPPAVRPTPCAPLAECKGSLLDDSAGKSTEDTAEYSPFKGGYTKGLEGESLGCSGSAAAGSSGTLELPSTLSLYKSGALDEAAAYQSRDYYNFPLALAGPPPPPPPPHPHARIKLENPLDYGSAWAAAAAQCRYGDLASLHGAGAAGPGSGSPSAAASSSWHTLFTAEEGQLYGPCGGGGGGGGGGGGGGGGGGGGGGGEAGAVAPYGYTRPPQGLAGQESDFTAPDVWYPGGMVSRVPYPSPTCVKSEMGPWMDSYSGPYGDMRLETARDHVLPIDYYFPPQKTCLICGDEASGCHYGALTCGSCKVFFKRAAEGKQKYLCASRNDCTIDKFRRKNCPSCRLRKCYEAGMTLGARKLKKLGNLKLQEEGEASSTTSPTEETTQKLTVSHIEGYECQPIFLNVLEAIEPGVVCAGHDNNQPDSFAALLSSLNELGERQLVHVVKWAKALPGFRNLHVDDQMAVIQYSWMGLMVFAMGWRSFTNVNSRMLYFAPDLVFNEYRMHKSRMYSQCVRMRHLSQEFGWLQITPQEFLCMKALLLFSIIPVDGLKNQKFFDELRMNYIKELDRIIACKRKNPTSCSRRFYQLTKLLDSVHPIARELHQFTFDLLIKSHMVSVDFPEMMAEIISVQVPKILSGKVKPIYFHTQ
quantity.name: Kb

>>> result("COC(=O)C1=C(C)NC(N)=C(C(=O)OC)C1c1csc2c(C#N)cccc12 (centres unmarked)")
"≥ 1000 nM"
>>> result("CC(=O)C1=C(C)NC(C)=C(C(=O)OC2CCC(F)(F)CC2)C1c1csc2ncccc12 (centres unmarked)")
"≥ 1000 nM"
>>> result("CC(=O)C1=C(C)NC(N)=C(C(=O)OC2CCCC2)C1c1csc2c(Br)cccc12 (centres unmarked)")
"≥ 1000 nM"

Kb value, target or system AR-Receptor (Homo sapiens, UniProt P10275), for CC(=O)C1=C(C)NC(C)=C(C(=O)OCc2ccccc2)C1c1csc2ccccc12 (centres unmarked) : 100 to 1000 nM

Kb value, target or system AR-Receptor (Homo sapiens, UniProt P10275), for CC(=O)C1=C(C)NC(C)=C(C(=O)OCc2cccc(Br)c2)C1c1csc2ncccc12 (centres unmarked) : < 100 nM

Kb value, target or system AR-Receptor (Homo sapiens, UniProt P10275), for CC(=O)C1=C(C)NC(C)=C(C(=O)OCc2cccnc2)C1c1csc2c(Br)cccc12 (centres unmarked) : 100 to 1000 nM

Kb value, target or system AR-Receptor (Homo sapiens, UniProt P10275), for COC(=O)C1=C(C)NC(N)=C(C(=O)OC2CCCC2)C1c1csc2c(C#N)cccc12 (centres unmarked) : 100 to 1000 nM

Kb value, target or system AR-Receptor (Homo sapiens, UniProt P10275), for CC(=O)C1=C(C)NC(C)=C(C(=O)N(C)Cc2ccccc2)C1c1csc2ncccc12 (centres unmarked) : ≥ 1000 nM

---

target: human androgen receptor (Homo sapiens, UniProt P10275, T878A); construct: endogenously expressed human androgen receptor using the LnCap prostate cancer cell line; endogenous in cells; assay: Human Androgen Receptor Binding (radioligand binding, LnCap prostate cancer cell line); conditions: LnCap cells, displacement of [^3H]-methyltrienolone, 2 hours at 37° C.; read-out: AR LNCaP
Sequence (P10275 whole entry T878A): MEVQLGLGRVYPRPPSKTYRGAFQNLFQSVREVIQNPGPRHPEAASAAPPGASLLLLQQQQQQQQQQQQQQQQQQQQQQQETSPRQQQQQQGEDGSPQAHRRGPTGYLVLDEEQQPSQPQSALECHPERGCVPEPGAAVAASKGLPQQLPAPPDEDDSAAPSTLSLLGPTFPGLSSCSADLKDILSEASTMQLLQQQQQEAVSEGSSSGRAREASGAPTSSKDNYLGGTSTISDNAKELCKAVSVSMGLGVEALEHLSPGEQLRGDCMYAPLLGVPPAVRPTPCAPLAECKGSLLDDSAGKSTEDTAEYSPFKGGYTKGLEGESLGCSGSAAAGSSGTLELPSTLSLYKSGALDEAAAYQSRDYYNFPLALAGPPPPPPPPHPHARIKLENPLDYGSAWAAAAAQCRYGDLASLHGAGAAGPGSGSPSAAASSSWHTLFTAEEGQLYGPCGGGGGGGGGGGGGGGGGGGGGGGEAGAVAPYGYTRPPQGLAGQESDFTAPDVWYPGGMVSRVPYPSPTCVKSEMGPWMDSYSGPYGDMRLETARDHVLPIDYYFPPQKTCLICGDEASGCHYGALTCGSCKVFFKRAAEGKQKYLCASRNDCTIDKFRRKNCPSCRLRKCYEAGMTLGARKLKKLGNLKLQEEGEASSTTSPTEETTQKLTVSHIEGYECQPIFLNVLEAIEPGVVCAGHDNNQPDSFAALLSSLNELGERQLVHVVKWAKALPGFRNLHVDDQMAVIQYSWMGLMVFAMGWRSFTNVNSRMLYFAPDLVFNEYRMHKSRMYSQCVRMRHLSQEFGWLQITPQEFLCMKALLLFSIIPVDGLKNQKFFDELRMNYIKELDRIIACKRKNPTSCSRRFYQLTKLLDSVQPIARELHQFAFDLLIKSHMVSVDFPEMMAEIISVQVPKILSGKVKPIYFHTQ
pIC50: −log10 of the molar value.
quantity.name: pIC50

Reference set, count: 5
>>> result("CC(=O)C1=C(C)NC(C)=C(C(=O)OCC2CC2)C1c1csc2ccccc12 (stereo not shown)")
"6.00 to 7.00"
>>> result("CC1=C(C#N)C(c2csc3c(C#N)cccc23)C(C(=O)OCc2ccc(F)cc2)=C(N)N1 (stereo not shown)")
"≤ 6.00"
>>> result("COC(=O)C1=C(N)NC(C)=C(C(C)=O)C1c1csc2ccccc12 (stereo not shown) [Example D1]")
"6.00 to 7.00"
>>> result("N#CC1=C(N)NC(C2CC2)=C(C(=O)OCC2CC2)C1c1csc2c(C#N)cccc12 (stereo not shown)")
"6.00 to 7.00"
>>> result("CC(=O)C1=C(C)NC(C)=C(C(=O)OCC2CC2)C1c1csc2ncccc12 (stereo not shown)")
"> 7.00"

// CC(=O)C1=C(C)NC(C)=C(C(=O)OCc2ccc(-c3cccnc3)cc2)C1c1csc2ncccc12 (stereo not shown) : pIC50 value = ≤ 6.00

---

pIC50: −log10 of the molar value.
Quick note: these are pIC50 numbers for system: Rat Androgen Receptor (Rattus norvegicus, UniProt P15207)
Sequence (P15207 646-902 limits assumed): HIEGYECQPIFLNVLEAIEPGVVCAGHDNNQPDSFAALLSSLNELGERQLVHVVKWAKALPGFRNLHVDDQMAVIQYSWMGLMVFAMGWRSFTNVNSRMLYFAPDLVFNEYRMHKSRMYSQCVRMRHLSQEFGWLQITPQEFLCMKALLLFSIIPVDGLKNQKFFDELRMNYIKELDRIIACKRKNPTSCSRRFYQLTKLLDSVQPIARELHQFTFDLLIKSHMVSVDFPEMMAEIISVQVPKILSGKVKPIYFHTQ

pIC50 value, target or system Rat Androgen Receptor (Rattus norvegicus, UniProt P15207), for `CC(=O)C1=C(C)NC(C)=C(C(C)=O)C1c1csc2ccc(C(=O)N3CCN(C)CC3)cc12` : ≤ 6.00

pIC50 value, target or system Rat Androgen Receptor (Rattus norvegicus, UniProt P15207), for CC(=O)C1=C(C)NC(C)=C(C(=O)Cc2ccccc2)C1c1csc2ccccc12 (stereo not shown) : 6.00 to 7.00

pIC50 value, target or system Rat Androgen Receptor (Rattus norvegicus, UniProt P15207), for CC(=O)C1=C(C)NC(C)=C(C(=O)OCc2ccncc2)C1c1csc2ccccc12 (stereo not shown) : ≤ 6.00

pIC50 value, target or system Rat Androgen Receptor (Rattus norvegicus, UniProt P15207), for COCC1=C(C(C)=O)C(c2csc3ccccc23)C(C(=O)OC)=C(C)N1 (stereo not shown) : ≤ 6.00

pIC50 value, target or system Rat Androgen Receptor (Rattus norvegicus, UniProt P15207), for CC(=O)C1=C(C)NC(C)=C(C(=O)OC2CCCC2)C1c1csc2ccccc12 (stereo not shown) : > 7.00

pIC50 value, target or system Rat Androgen Receptor (Rattus norvegicus, UniProt P15207), for `CC(=O)C1=C(C)NC(C)=C(C(C)=O)C1c1csc2ccc(-c3cccnc3)cc12` : ≤ 6.00
